This collection of values is drawn from paper PMC6053381.

Tested on: QGY-7703
Test: CellTiter-Glo luminescent cell viability assay
Type: cell-based
Conditions: 120 h incubation, read-out: Anti-proliferative activity IC50 QGY-7703
measured_metric: pIC50
Bear in mind: pIC50 is minus log10 of a mol/L concentration; give just that figure.

Some entries whose results are on file:
compound: CCC(=O)Nc1ccc(C)c(Oc2nccc(-c3cccc4ccccc34)n2)c1 [C2]
pIC50: 3.92
--
compound: COc1ccc(C(=O)Nc2ccc(C)c(Oc3nccc(-c4cccnc4)n3)c2)cc1 [A5]
pIC50: 4.39
--
compound: Cc1ccc(NC(=O)c2ccncc2)cc1Oc1nccc(-c2cccnc2)n1 [A12]
pIC50: 3.77

GET /value?item= CCC(=O)Nc1ccc(C)c(Oc2nccc(-c3cc4ccccc4o3)n2)c1 [E2] &field=pIC50 returns 6.40

GET /value?item= Cc1ccc(NC(=O)Cc2ccccc2)cc1Oc1nccc(-c2ccccc2)n1 [B2] &field=pIC50 returns 4.69

GET /value?item= Cc1ccc(NC(=O)c2ccoc2)cc1Oc1nccc(-c2cccc3ccccc23)n1 [C4] &field=pIC50 returns 4.83

GET /value?item= CC(=O)Nc1ccc(C)c(Oc2nccc(-c3cccc4ccccc34)n2)c1 [C1] &field=pIC50 returns 4.04

* * *

Target: FGFR1 (Homo sapiens, UniProt P11362)
Sequence (P11362 22-822, species assumed): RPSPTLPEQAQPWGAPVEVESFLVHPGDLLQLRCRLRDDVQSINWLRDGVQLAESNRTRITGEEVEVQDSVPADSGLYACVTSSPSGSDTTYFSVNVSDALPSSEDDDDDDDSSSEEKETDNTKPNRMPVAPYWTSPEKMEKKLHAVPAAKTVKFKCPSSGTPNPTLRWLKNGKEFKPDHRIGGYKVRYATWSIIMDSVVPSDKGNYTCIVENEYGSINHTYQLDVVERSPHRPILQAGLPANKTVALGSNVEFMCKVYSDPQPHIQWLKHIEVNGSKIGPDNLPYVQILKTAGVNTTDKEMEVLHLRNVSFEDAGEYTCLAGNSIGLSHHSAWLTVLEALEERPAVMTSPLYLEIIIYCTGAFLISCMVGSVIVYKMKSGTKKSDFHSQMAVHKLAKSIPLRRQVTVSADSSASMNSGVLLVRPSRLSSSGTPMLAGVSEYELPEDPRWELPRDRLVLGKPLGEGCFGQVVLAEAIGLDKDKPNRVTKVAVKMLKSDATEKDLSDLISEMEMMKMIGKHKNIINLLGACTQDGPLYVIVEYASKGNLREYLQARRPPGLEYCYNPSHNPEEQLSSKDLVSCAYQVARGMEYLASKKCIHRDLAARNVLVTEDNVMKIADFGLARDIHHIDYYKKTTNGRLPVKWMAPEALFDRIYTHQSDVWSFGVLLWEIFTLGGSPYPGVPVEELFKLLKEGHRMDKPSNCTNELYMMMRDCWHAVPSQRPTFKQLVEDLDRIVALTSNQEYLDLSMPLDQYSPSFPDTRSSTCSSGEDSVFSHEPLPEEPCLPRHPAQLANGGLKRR
measured_metric: IC50

# value of IC50, FGFR1 (Homo sapiens, UniProt P11362), item Cc1ccc(NC(=O)c2ccc(CN3CCN(C)CC3)cc2)cc1Oc1nccc(-c2cc3ccccc3o2)n1 [E5] = > 25 µM

* * *

Target: PDGFRβ (Homo sapiens, UniProt P09619)
Sequence (P09619 33-1106): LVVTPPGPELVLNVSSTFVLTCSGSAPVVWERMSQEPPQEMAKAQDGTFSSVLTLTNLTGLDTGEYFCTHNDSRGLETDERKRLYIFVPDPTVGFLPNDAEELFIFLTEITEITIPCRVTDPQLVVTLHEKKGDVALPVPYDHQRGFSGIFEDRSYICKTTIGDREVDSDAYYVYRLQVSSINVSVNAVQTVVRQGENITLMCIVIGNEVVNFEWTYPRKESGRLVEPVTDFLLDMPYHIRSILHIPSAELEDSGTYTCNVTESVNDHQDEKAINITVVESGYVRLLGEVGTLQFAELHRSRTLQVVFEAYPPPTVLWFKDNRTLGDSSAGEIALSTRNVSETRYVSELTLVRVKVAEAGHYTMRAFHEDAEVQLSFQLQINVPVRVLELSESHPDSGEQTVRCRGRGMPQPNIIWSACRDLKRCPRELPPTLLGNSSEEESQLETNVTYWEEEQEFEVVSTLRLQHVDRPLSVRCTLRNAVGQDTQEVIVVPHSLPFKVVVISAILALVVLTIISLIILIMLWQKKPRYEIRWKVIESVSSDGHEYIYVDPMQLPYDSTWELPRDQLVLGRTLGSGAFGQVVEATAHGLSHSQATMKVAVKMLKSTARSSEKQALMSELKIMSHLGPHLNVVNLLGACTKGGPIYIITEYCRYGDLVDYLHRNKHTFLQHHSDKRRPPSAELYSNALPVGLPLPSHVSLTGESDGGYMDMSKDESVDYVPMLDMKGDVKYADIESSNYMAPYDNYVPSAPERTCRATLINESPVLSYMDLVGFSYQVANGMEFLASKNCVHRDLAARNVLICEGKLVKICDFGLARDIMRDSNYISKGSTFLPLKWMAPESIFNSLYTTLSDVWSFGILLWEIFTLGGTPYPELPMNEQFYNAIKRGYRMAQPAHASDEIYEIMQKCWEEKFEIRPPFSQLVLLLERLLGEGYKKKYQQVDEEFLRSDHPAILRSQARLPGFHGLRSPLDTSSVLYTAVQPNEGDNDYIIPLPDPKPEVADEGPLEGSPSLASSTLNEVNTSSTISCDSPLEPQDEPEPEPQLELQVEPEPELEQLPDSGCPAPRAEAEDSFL
Experiment: PDGFR kinase assay, Caliper microfluidic mobility shift
Assay type: biochemical
Settings: compound at 1 µM; averages of two separate experiments
measured_metric: Inhibition effect (%) PDGFRβ
Entry rule: numbers only, all in %.

compound: CC(=O)Nc1ccc(C)c(Oc2nccc(-c3cc4ccccc4o3)n2)c1 [E1]
study_system: PDGFRβ (Homo sapiens, UniProt P09619)
Inhibition effect (%) PDGFRβ: 1.82

GET /value?item= Cc1cccc(C(=O)Nc2ccc(C)c(Oc3nccc(-c4ccco4)n3)c2)c1 &field=Inhibition effect (%) PDGFRβ returns 46.00

GET /value?item= Cc1ccc(NC(=O)CO)cc1Oc1nccc(-c2cc3ccccc3o2)n1 &field=Inhibition effect (%) PDGFRβ returns 14.62

GET /value?item= Cc1ccc(NC(=O)c2ccco2)cc1Oc1nccc(-c2cc3ccccc3o2)n1 &field=Inhibition effect (%) PDGFRβ returns 3.83

GET /value?item= Cc1ccc(NC(=O)c2ccoc2)cc1Oc1nccc(-c2cc3ccccc3o2)n1 &field=Inhibition effect (%) PDGFRβ returns 7.35

GET /value?item= Cc1ccc(NC(=O)c2cccc(Cl)c2)cc1Oc1nccc(-c2cccnc2)n1 &field=Inhibition effect (%) PDGFRβ returns 40.23

GET /value?item= Cc1ccc(C(=O)Nc2ccc(C)c(Oc3nccc(-c4cccnc4)n3)c2)cc1 &field=Inhibition effect (%) PDGFRβ returns 45.50

GET /value?item= Cc1ccc(NC(=O)c2ccc(Cl)cc2)cc1Oc1nccc(-c2ccco2)n1 &field=Inhibition effect (%) PDGFRβ returns 37.47

GET /value?item= Cc1cccc(C(=O)Nc2ccc(C)c(Oc3nccc(-c4ccccc4)n3)c2)c1 &field=Inhibition effect (%) PDGFRβ returns 24.42

* * *

Tested on: BEL7404
Test: CellTiter-Glo luminescent cell viability assay
Type: cell-based
Conditions: Homo sapiens, BEL-7404, 120 h incubation, read-out: Anti-proliferative activity IC50 BEL7404
Procedure: The in vitro antitumor activity of all compounds was screened against six HCC cell lines by CellTiter-Glo luminescent cell viability assay as described earlier. […] authenticated by using short tandem repeat (STR) matching analysis. No mycoplasma contamination was detected. […] For experiments hepatocellular carcinoma cells were seeded at 4000 cells per well in 96-well plates. […] Luminescence was measured using an EnVision Multilabel Plate Reader (Perkin-Elmer). […]
measured_metric: pIC50
Bear in mind: pIC50 is minus log10 of a mol/L concentration; give just that figure.

mol: Cc1ccc(NC(=O)c2ccc(CN3CCN(C)CC3)cc2)cc1Oc1nccc(-c2cc3ccccc3o2)n1
experimental_value: 6.10

Here's the next entry for you.
# value of pIC50, BEL7404, item Cc1ccc(N)cc1Oc1nccc(-c2cccnc2)n1 = 4.97

* * *

Molecular target: ABL2 (Homo sapiens, UniProt P42684)
Sequence (P42684 whole entry, species assumed): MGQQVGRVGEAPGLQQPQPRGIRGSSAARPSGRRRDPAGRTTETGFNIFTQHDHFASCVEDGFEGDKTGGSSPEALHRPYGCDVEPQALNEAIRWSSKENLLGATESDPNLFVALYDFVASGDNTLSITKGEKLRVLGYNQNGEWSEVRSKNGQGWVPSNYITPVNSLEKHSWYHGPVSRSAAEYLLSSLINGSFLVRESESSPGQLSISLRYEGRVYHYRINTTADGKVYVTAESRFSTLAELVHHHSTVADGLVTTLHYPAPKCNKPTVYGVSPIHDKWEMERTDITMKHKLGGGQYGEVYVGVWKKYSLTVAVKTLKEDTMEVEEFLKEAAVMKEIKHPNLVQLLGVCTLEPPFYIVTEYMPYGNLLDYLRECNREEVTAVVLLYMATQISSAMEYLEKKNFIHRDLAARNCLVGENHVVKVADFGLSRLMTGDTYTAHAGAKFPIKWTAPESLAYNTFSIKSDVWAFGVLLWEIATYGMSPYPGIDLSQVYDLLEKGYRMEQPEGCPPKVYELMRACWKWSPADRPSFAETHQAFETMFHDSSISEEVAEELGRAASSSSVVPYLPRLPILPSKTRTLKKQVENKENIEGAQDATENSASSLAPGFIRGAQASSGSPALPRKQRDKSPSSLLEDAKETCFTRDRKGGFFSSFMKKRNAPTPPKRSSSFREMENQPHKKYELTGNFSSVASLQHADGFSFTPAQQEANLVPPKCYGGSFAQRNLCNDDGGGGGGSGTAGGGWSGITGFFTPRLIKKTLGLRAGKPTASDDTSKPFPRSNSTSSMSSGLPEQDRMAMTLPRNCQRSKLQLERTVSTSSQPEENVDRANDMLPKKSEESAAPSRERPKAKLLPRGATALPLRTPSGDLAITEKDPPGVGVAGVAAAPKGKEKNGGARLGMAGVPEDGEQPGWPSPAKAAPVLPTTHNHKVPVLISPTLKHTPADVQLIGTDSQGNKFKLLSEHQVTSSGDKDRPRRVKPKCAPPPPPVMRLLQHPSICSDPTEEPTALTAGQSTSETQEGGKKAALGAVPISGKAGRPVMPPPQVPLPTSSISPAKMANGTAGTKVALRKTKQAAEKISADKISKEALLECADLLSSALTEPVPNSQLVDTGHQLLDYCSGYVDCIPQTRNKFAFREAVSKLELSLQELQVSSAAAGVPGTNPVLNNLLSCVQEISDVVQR
measured_metric: pIC50
Bear in mind: pIC50 is minus log10 of a mol/L concentration; give just that figure.

# value of pIC50, ABL2 (Homo sapiens, UniProt P42684), item Cc1ccc(NC(=O)c2ccc(CN3CCN(C)CC3)cc2)cc1Oc1nccc(-c2cc3ccccc3o2)n1 = 5.36

* * *

Target: PDGFRβ (Homo sapiens, UniProt P09619)
Test: PDGFR kinase assay, Caliper microfluidic mobility shift
Type: biochemical
Settings: compound at 1 µM; averages of two separate experiments
Reported Inhibition effect (%) PDGFRβ values follow for various molecules
Entry rule: numbers only, all in %.

Some entries whose results are on file:
mol: Cc1ccc(C(=O)Nc2ccc(C)c(Oc3nccc(-c4ccccc4)n3)c2)cc1
scale_unit: %
Inhibition effect (%) PDGFRβ: 26.17
//
mol: Cc1ccc(NC(=O)c2ccc([N+](=O)[O-])cc2)cc1Oc1nccc(-c2cccnc2)n1
scale_unit: %
Inhibition effect (%) PDGFRβ: 43.24
//
mol: Cc1ccc(NC(=O)CN2CCN(C)CC2)cc1Oc1nccc(-c2cc3ccccc3o2)n1
scale_unit: %
Inhibition effect (%) PDGFRβ: -0.44
//
mol: Cc1ccc(NC(=O)c2ccco2)cc1Oc1nccc(-c2cccc3ccccc23)n1
scale_unit: %
Inhibition effect (%) PDGFRβ: 11.61

Here's the next entry for you.
GET /value?item= Cc1ccc(NC(=O)c2ccoc2)cc1Oc1nccc(-c2cccc3ccccc23)n1 &field=Inhibition effect (%) PDGFRβ returns 2.83

* * *

Reported IC50 values follow for various compounds
Test system: SMMC-7721
Experiment: CellTiter-Glo luminescent cell viability assay
Assay type: cell-based
Settings: 120 h incubation, read-out: Anti-proliferative activity IC50 SMMC-7721
Field note: include the unit after the figure.

Some entries whose results are on file:
mol: CCC(=O)Nc1ccc(C)c(Oc2nccc(-c3cccc4ccccc34)n2)c1
study_system: SMMC-7721
IC50: 29.5 µM
--
mol: Cc1ccc(NC(=O)c2cccc([N+](=O)[O-])c2)cc1Oc1nccc(-c2ccccc2)n1
study_system: SMMC-7721
IC50: 13.8 µM
--
mol: CC(=O)Nc1ccc(C)c(Oc2nccc(-c3cccc4ccccc34)n2)c1
study_system: SMMC-7721
IC50: 21 µM
--
mol: Cc1ccc(NC(=O)c2ccc(F)cc2)cc1Oc1nccc(-c2ccccc2)n1
study_system: SMMC-7721
IC50: 3.9 µM

Here's the next entry for you.
# value of IC50, SMMC-7721, item Cc1ccc(NC(=O)c2cccnc2)cc1Oc1nccc(-c2cccnc2)n1 = 79.7 µM

* * *

Target: PDGFRα (Homo sapiens)
Sequence (P16234 24-1089): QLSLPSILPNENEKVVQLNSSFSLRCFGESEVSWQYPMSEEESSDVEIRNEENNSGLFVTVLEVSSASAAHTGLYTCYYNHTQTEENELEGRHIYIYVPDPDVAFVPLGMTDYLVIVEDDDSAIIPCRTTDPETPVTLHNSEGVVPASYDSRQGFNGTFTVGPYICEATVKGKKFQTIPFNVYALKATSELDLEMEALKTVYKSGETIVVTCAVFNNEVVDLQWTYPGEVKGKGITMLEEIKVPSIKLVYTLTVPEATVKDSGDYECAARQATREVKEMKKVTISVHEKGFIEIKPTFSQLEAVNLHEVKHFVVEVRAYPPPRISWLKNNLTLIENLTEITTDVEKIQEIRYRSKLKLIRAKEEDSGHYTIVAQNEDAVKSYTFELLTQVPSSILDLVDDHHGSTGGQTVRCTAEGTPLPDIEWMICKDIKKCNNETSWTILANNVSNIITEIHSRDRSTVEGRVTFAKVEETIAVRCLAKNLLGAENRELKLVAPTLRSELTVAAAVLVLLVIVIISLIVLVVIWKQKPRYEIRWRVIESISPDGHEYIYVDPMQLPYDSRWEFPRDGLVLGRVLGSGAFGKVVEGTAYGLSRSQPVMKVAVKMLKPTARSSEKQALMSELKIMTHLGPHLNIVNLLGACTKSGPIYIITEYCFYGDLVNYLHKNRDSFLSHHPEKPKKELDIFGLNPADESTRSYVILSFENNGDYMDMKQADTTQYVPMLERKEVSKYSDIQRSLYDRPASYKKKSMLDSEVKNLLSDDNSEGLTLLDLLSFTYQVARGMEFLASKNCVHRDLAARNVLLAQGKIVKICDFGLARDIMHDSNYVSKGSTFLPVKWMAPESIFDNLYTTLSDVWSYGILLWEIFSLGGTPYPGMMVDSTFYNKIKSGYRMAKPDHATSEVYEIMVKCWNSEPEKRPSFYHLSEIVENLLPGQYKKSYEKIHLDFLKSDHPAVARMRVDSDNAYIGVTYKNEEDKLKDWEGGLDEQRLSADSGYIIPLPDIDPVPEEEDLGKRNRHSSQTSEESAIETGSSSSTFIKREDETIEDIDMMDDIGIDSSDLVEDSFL
Experiment: PDGFR kinase assay, Caliper microfluidic mobility shift
Assay type: biochemical
Conditions: compound at 1 µM; averages of two separate experiments
The threshold is 20%. Values of Inhibition effect (%) PDGFRα beneath it are tagged Criterion met; values meeting or exceeding it are tagged Criterion not met.

Known results for compounds:
mol: Cc1ccc(NC(=O)c2ccco2)cc1Oc1nccc(-c2cccc3ccccc23)n1
group: Criterion not met

mol: Cc1ccc(NC(=O)c2cccnc2)cc1Oc1nccc(-c2cccnc2)n1
group: Criterion not met

mol: Cc1cccc(C(=O)Nc2ccc(C)c(Oc3nccc(-c4ccccc4)n3)c2)c1
group: Criterion not met

mol: Cc1ccc(NC(=O)c2cccc([N+](=O)[O-])c2)cc1Oc1nccc(-c2cccnc2)n1
group: Criterion not met

Inquiry: Lab note: confirm whether the reported Inhibition effect (%) PDGFRα for this compound is below 20%, equality not counting. compound: Cc1ccc(C(=O)Nc2ccc(C)c(Oc3nccc(-c4cccnc4)n3)c2)cc1
Reply text: Criterion not met

Inquiry: Lab note: confirm whether the reported Inhibition effect (%) PDGFRα for this compound is below 20%, equality not counting. compound: Cc1ccc(NC(=O)c2ccc(Cl)cc2)cc1Oc1nccc(-c2ccccc2)n1
Reply text: Criterion met

Inquiry: Lab note: confirm whether the reported Inhibition effect (%) PDGFRα for this compound is below 20%, equality not counting. compound: Cc1ccc(NC(=O)c2ccc(Cl)cc2)cc1Oc1nccc(-c2cccnc2)n1
Reply text: Criterion not met

Inquiry: Lab note: confirm whether the reported Inhibition effect (%) PDGFRα for this compound is below 20%, equality not counting. compound: Cc1ccc(NC(=O)CN2CCN(C)CC2)cc1Oc1nccc(-c2cc3ccccc3o2)n1
Reply text: Criterion met

* * *

Reported IC50 values follow for various compounds
System: SNU368
Experiment: CellTiter-Glo luminescent cell viability assay
Assay type: cell-based
Conditions: 120 h incubation, read-out: Anti-proliferative activity IC50 SNU368
Entry rule: numbers only, all in µM.

Some entries whose results are on file:
mol: Cc1ccc(NC(=O)c2cccc(Cl)c2)cc1Oc1nccc(-c2ccccc2)n1
study_system: SNU368
scale_unit: µM
IC50: 14
//
mol: Cc1ccc(NC(=O)c2ccc([N+](=O)[O-])cc2)cc1Oc1nccc(-c2ccccc2)n1
study_system: SNU368
scale_unit: µM
IC50: 12

GET /value?item= Cc1ccc(NC(=O)c2ccco2)cc1Oc1nccc(-c2cc3ccccc3n2C)n1 &field=IC50 returns 26.5

GET /value?item= Cc1ccc(NC(=O)c2cccc([N+](=O)[O-])c2)cc1Oc1nccc(-c2cccnc2)n1 &field=IC50 returns 51.5

GET /value?item= Cc1ccc(NC(=O)c2ccc(F)cc2)cc1Oc1nccc(-c2cccnc2)n1 &field=IC50 returns 38.7
